Field: inhibition. Provide a value for each of the compounds that follow.
- SYSTEM: Histamine H1 receptor (Cavia porcellus) (UniProt P31389)
- Sequence (P31389 whole entry): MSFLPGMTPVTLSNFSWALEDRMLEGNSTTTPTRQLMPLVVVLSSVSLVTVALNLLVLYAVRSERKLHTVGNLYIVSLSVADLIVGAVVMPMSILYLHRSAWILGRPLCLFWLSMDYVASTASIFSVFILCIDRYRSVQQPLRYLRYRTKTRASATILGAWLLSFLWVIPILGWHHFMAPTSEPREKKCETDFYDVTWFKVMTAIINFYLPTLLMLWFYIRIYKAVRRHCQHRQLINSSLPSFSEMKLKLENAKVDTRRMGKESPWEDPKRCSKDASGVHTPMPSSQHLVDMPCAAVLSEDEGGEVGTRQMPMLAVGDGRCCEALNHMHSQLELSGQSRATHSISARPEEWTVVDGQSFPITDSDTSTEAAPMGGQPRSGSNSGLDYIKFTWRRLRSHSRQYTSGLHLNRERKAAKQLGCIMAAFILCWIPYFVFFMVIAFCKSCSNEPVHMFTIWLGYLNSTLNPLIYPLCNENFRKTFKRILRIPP
- EXPERIMENT SUMMARY: Antagonist activity at histamine H1 receptor in Dunkin-Hartley guinea pig ileum assessed as inhibition of histamine-induced contractions at 10 umol/L
- Type: functional, tissue-based
- MEASUREMENT PARAMETERS: at 10 µM

Lookup: Name the recorded inhibition for "CS(=O)(=O)c1ccc(/C=C2\OC(=O)C=C2CN2CCC(=C3c4ccc(Cl)cc4CCc4cccnc43)CC2)cc1" .
Found: 50.4%

Lookup: Name the recorded inhibition for "O=C1C=C(CN2CCC(=C3c4ccc(Cl)cc4CCc4cccnc43)CC2)CO1" .
Found: 79%

Lookup: Name the recorded inhibition for "COc1ccccc1/C=C1\OC(=O)C=C1CN1CCC(=C2c3ccc(Cl)cc3CCc3cccnc32)CC1" .
Found: 59.2%

Lookup: Name the recorded inhibition for "COc1cc(/C=C2\OC(=O)C=C2CN2CCC(=C3c4ccc(Cl)cc4CCc4cccnc43)CC2)ccc1O" .
Found: 42.5%

Reference for the values: ChEMBL document CHEMBL1156917
